Test: yeast display, Sf9 membrane polyspecificity reagent, FACS + sequencing; frameworks hold sequencing errors
measurement.kind: polyreactivity (PSR sort gate)

seq.text	result
QVQLVQSGGGLVQAGGSLSLSCAASGYIFISYAMGWNRQAPGQEREFVAAITGDGGSTYADSVKGRFTISRDNAKKTVYGQMNSLKPEDTAVYYCAKKGNASRYFIYDYWGQGTQVTVSS	low polyreactivity
QVQLVESGGGLVQAGGSLRLSSAASGRTLAGYAMGWYRQAPGKERELVAAISRSGGRTYYADSVKGRFTISRDNAKNSVYLQMNSLKPEDTAVYYCAADTRIEVYYWGQGTQVTVSS	high polyreactivity
QVQLVESGGGLVQAGGSLRLSCAASGSTFQINAMGWYRQATGTERELGAAIDGGGDTYYADSVKGRFTISRDNAKNTFYLQMNSLKPEDTAVYYCNARSWARKSNGGSRIRYDYWGQGTQVTVSS	low polyreactivity
QVQLLESGGGLVQAGGSLRLSCAASGRIFVTYAMGWYRQAPGKERELVAAITSRGGRTYYADSVKGRFTISRDNAKNTVYLQMNSLKPEATAVYYCAAYPGPGARYYYWGQGTQVTVSS	high polyreactivity
QVKLVESGGGLVQAGGSLRLSCAASGRTFPSYAMGWYRQAPGKERELVAAISRSGGSTYYADSVKGRFTISRDNAKNPVYLQMNSLKPEDTAVYYCAAVSRVHFSYIYDYWGQGTQVTVSS	high polyreactivity
QVQLVESGGGLVQAGGSLSLSCAASGSTFVWYAMGWYRQAPGTERELVATITYGGGSTNYADSVKGRFTISRDNAKNTVYLQMNSLKPEDTAVYYCNADTYFESGYWGQGTLVTVSS	low polyreactivity

---

Experiment: yeast display, Sf9 membrane polyspecificity reagent, FACS + sequencing; frameworks hold sequencing errors
measurement.kind: polyreactivity (PSR sort gate)

seq.text	result
QVQLVESVGGLVQAGGSLPLSCDASGSIFFYYAMGWSRHAPGKESELVAAIDFNGGTTYYADSVKGRFTISRDTAKITVYLQMNSLTPEDTAVYYCAAEWEGTYSTVPDEFNYWGQGTQVTVSS	high polyreactivity
QLKHVESGGGLVQAGGSLRLSCAASVGTFGLNAMGRYRQAPGKERELVADIDGRGGSTYYADSVKGRFTISRDNAKNTVNLQMNTLKPEDTAVYYCAARAPFLSVPSELDYCGQGTQVTVSS	low polyreactivity
QVQLVESGGGLVQAGGSLRLSCAASGGTFPYNAMGWYRQAPGKERELVAVITSGDGTYYADSVKGRFTISRDNAKNTVYLQMNSLKPEDTAVYYCAADYVVWFSFVYVVEYDYWGQGTQVTVSS	low polyreactivity
QVQLVESGGGLVQAGGSLRLSCAASGRIFGRNPMGWYRQAPGKERELVAAITSRGTRTYYADSVKGRFTISRDNAKNTVYLQMISLKPEDTAVYYCNAAYYHSSSYPDYDYWGQGTQVTVSS	high polyreactivity
QVQLVESGGGLVQAGGSLRLSCAASGFIFPLYTMGWYRQAPGKERELVAANSVTGGSTYYADSVKGRFTISRDNAKNTVYLQMNSLKPEETAVYYCNAYLFFLNRVWSFDYWGQGTQVTVSW	high polyreactivity
QVQLVESGGGLVQAGGSLRLSCAASGFTFVNYAMGWYRQAPWKERELVAAIRRSGSRTYYADSVKGRFTISRDIAKNTVYLQMNCLNPEDTAVYYCAAVWYRLYGYWGQGTQVTVSS	low polyreactivity
QVQLVESGGGLVQAGGSLRLSCAASGYILIYNAMGWYRQAPGTERELVAAINYRGDRTYYADSVKGRFTISRDNAKNTVYLQMNSLKPEDTAVYYCAKDYPYYGRYYRYPYDSWGQGTQVTVSS	high polyreactivity
QVQLVESVGGLVQAGGSLRLSCAASGRTFTYNSMGSYRQAPGKERELVAAITRRGGSTYYADSVKGRFTISRDNAKNTVYLQMNSLKPEDTAVYYCAATGYLRTYDYWGQGTQVTVSS	high polyreactivity
QVQLVESGGGLVQAGGSLRLSCAASGYTFRSYAMGWYRQAPGKERELVAGIDGSGGTTYYADSVKGRFTISRDNAKNTVYLQMNSLKPEDTAVYYCAAEAYKHGVWDYDYWGQGTQATVSS	low polyreactivity
QVQLVESGGGLVQAGGSLRLSCAASGNIFRGYTMGWSRQAPGKERELVAAISYSGGSTYADSVKGRFTISRDNAKNTVYLQMNSLKPEDTAVYYCNTDTSVDVRFDYWGQGTQVTVSS	low polyreactivity
HVQLVESGGGLVQAGGSLRLSCASSGSIFWANAMGWYRQAPGKERELVATITSGGRTYYADSVKGRFTISRDNAKNTVYLQMNSLKPEDTAVYYCARVPPQYRWGRRLVYVHVDYWGQGTQVTVSS	low polyreactivity

---

Assay: yeast display, Sf9 membrane polyspecificity reagent, FACS + sequencing; frameworks hold sequencing errors

seq.text	polyreactivity (PSR sort gate)
QVQLVESGGGLVQAGGSLRLSCAASGRIFRYYAMGWYRQAPGKERELVADSTRGGGSTYYADSVKGRFTISRDNAKNTVYLQMNSLKPEDTAVYYCAKDGSGGLPVLYRYRYDYWGQGTQVTVSS	high polyreactivity
QVQLVESGGGLVQAGGRLRLSCAASGSTLNRNAMGWYRQAPGKERELVAAIRVSGGSTYYSDSVKGRFTISRDNAKNTVYLQMNSLNPEDTAVYYCGTRYVRARWYGYWGEGTQVTVSS	high polyreactivity
QVQLVESGGGLVQAGGSLRLSCAASGFIFGSYTMGWYRQAPGKERELVAAISSSVGRTYYADSVKGRFTISRDNAKNTVYLQMNSLKPEDTAVYYCAARRHGRVDYSQGSRESDYWGQGTQVTVSS	high polyreactivity
QVQHVESGGALVQAGGSLRLSCAASGSTFIKYAMGWYRQAPGKERELVAAISRSGASTYYADSVKGRFTLSRDNEKNTVYLQMKSLKPEDTAVYYCAARRRYLDHGYWGQGTQVTVSS	high polyreactivity
QVQLVESGGGLVQAGGSLRLSCAASGFIFWVYALGWYRQAPGKERELVAAITSGGGSTYYADSVKGRFTISRDNAKNSVYLQMNSLKPEDTAVYYCNSVSWEGYDFDYWGQGTQVTVSS	high polyreactivity
QDQLVEAGGGLVQAGGSLRLSCAASGRIFYPDAMVWYRQAPGKERELVAAIRRSGVDTYYADSVKVRFTISRDNAKNTVSLQRNSLKPEDTAVYYCAADPYWFFPHYDSWGQGTQVTVSS	low polyreactivity
QDQLVESGGGLVQAGGSLGLSCAASGITFDLYDMGWYRQAPGKERELVAAITDAHSTYYADSVKGRFTISRDNAKNTVYLQMNSLKPEDTAVYYCAADFFYSVDSGHYDYWGQGTQVTVSS	low polyreactivity
QVQLVESGGRLFQAGGSLRLICAASGSIFVYNTKGWYRQSPGKERELVASISYSGGPTYYADSVKGRFTISRDNAKNTVYLQMKSLNPEDTAVYYCAADVRQRGIYGPGPHYYWGQGTQVTVSS	high polyreactivity
QVQLVESGGGLVQAGGSLRLSCAASGSIFKSYAMGWYRQAPGKERELVAAISGSGGRTYYADSVKGRFTISRDNAKNTAYLQMNSLKPEDTAVYYCNALASIRTHTGYAYSPPYDYWGQGTQVTVSS	high polyreactivity
QVQLVESGGGLVQAGGSLRLSCAASGSTFTYYAMGWYRQAPGKERELVAAITSGGSTNYADSVKGRFTISRDNAKNTVYLQMNSLKPEDTAVYYCAAEYVRQNYEMDYWGQGTQVTVSS	low polyreactivity
QVQLVESGGGLVQAGGRLRLSCAASGFIFSLYAMGWYRQAPGKERELVAGISESGGSTYYADSVKGRFTISRDNAKNTVYLQMNSLKPEDTAVYYCNADDTVYFIKAGDYWGQGTQVTVSS	high polyreactivity
QDQLVESGGGLVQAGGTLRLSCAATGSTFTNYAMGWYRQAPGKERELVAALTSVGSTYYADSVKGRFTISRDNAKNTVYLQTNSLKAEDTAVYYCNVVYRDQYNYWGQGTQVTVSS	low polyreactivity
QVQLVESGGGLVQAGGSLRLSCSASGSTFPPNAMGWYRQAPGKERELVAVISYSDGSTYYADSVKGRFTISRDNAKNTVYLQMNSLKPEDTAVYYCAAYSGYGGVSMYYWGQGTQVTVSS	low polyreactivity
QVQLVETGGGLVQAGGSLRLSCAASGIIFGGYDRGWYRQAPGKERELVAAISWSGGSTYYAASVKGRFTISRDNAKNTVYLEMNSLKPEDTAVYYCAAAYYAPTRDYYYWGQGTQVTVSS	low polyreactivity
QVQLVESGGGLVQAGGSLRLSCAASGLIFYENAMGWYRQAPGKERELVAAINYDGDSTYYADSVKGRFTISRDNAKNTVYLQMNSLKPEDTAVYYCAADGGWVLFWMDYWGQGTQVTVSS	low polyreactivity

---

Experiment: yeast display, Sf9 membrane polyspecificity reagent, FACS + sequencing; frameworks hold sequencing errors

seq.text	polyreactivity (PSR sort gate)
QVQLVESGGGLVQEGGSLRLSCASSGSTFRYNVMGWYRQAPGKERELVAAITRRGSRTYYADSVKGRFTISRDNAKNTVYLHMNSLKPADTAVYDCNKNSLSVPANDDYWGQGTQVTVSS	high polyreactivity
QVQLVESGGGLVQAGGSLRLSCAASGRILGYNARGWYRQAPGKEREFVATISKRTGSTRYADSVKGRFTISRDNAKNTVYLQMNSLKPEDTAVYYCAAYYGRFYGKYDYWGQGTQVTVSS	high polyreactivity
QVQLVESGGGLVQAGGSLRLSCAASGGTFVRYVMGWYRPAPGKERELVAAISGSGGSTYYADTVKGRFTISRDNAKNTVYLQMNSLKPEASAVYYCASVYYWSKFYYWGQGTQVTVSS	high polyreactivity
QVQLVESGGGLVQAGGSLRLSCAASGRTFDAYAMGWYRQAPGKERELVATITSGGGTYYADSVKGRFTISRDNEKNTVYLQMNSLKPEDYAVYYCNKRYVVSRKYDYWGQGTQVTVSS	low polyreactivity
QVQLVESGGGLVQAGGSLRLSCAASGSTCVSNAMGWYRQAPGKERELVAAISSGDNTNYADSVKGRFTISRDNAKNTVYVQMNSLKPEDTAVYYCAARAYRWRSFSTMYYWGQGTQVTVST	high polyreactivity
QVQLVESGGGLVQAGGSLRLSCAASGFTFPRNAMGWYRQAPGKERELVAAISRGGGGTYYADSVKGRFTISRDNAKNTVYLQMNSLKPEDTAVYYCNARSVVREFNYWGQGTQVTVSS	high polyreactivity
QVQLVESGGGLVQAGGSLRLSCAASGLIFHFNAMGWYRQAPGKERELVAAITSIGGSTFYADSVKGRFTISRDNAKNTVYLQMNSLKPEDTAVYYCAAAISYFFPDYDYWGQGTQVTVSS	low polyreactivity

Values from the nanobody polyreactivity screen of Harvey et al. (2022)
